- experiment: Cytotoxicity against human erythrocytes assessed as hemolytic activity after 60 mins
- Format: cell-based, Erythrocyte
- experimental setup: read-out: HD50

{"columns": ["compound", "HC50 at 1 h"],
 "data": [
  ["C[C@@H]1CC[C@@]2(OC1)O[C@H]1C[C@H]3[C@@H]4CC=C5C[C@@H](O[C@@H]6O[C@H](CO)[C@@H](O)[C@H](O)[C@H]6O)CC[C@]5(C)[C@H]4CC[C@]3(C)[C@H]1[C@@H]2C [DISOGLUSIDE]", "> 100 µM"],
  ["CC(=O)OC[C@H]1O[C@@H](O[C@H]2CC[C@@]3(C)C(=CC[C@H]4[C@@H]5C[C@@H]6O[C@]7(CC[C@@H](C)CO7)[C@@H](C)[C@@H]6[C@@]5(C)CC[C@@H]43)C2)[C@H](O[C@@H]2O[C@@H](C)[C@H](O)[C@@H](O)[C@H]2O)[C@@H](O)[C@@H]1O", "> 75 µM"],
  ["CCCCCCCCCCCCCC(=O)NCCO[C@H]1[C@H](O)[C@H](O)[C@@H](O[C@H]2[C@H](O)[C@@H](O[C@H]3O[C@H](C)[C@@H](O)[C@H](O)[C@@H]3O)[C@H](O[C@H]3CC[C@@]4(C)C(=CC[C@H]5[C@@H]6C[C@@H]7O[C@]8(CC[C@@H](C)CO8)[C@@H](C)[C@@H]7[C@@]6(C)CC[C@@H]54)C3)O[C@@H]2CO)O[C@@H]1C", "> 50 µg/mL"]
]}
